# credit: a melting point compilation (Tetko et al.; mined from patent text by program, amines drawn as free bases though some values may be those of a salt)

Collected melting point values appear next to each entry.

| COMPOUND | melting point |
| --- | --- |
| COc1cc(CSc2ccc(O)cc2)cc(OC)c1O | 128 °C |
| CCNc1ncnc(NCC)c1[N+](=O)[O-] | 80 to 81 °C |
| N#Cc1ccccc1OCCCN1CCC(NC(=O)C2CCCCC2)CC1 | 110 to 112 °C |
| CC(=O)SCCC(=O)N1CC[C@H](SC(C)=O)[C@H]1C(=O)O | 145 to 148 °C |
| COC(=O)Cc1ccccc1OCc1cncc(OCc2nc(-c3ccccc3)oc2C)c1 | 77 to 78 °C |
| Cc1n[nH]c(C)c1Oc1cc(C#N)cc(C#N)c1 | 182 to 185 °C |
| CN1C(=O)COc2cccc3nc4c(c1c23)CCCC4 | 176 to 178 °C |
| COc1ccccc1-c1ccccc1/C=C/C1CC(O)CC(=O)O1 (stereo not drawn) | 129 to 131 °C |

----------
Collected melting point values appear next to each entry.

| COMPOUND | melting point |
| --- | --- |
| CC(=O)OC1CCN(Cc2nc(-c3cc(C(C)(C)C)c(O)c(C(C)(C)C)c3)cs2)CC1 | 160 to 161 °C |
| COc1ccc(NC(=O)c2ccc(-c3ccc(-c4noc(C)n4)cc3C)cc2)cc1C=CCN(C)C | 220 to 221 °C |
| COc1ccc(S(=O)(=O)c2ccc(C)nc2Nc2c(C)cc(C)cc2C)cc1 | 165 to 167 °C |
| O=C1Nc2ccccc2Oc2c1[nH]c1ccccc21 | 233 to 234 °C |
| COc1c(NCc2cccc(C)c2)cc2oc(=O)[nH]c2c1F | 160 to 161 °C |
| Cc1cc(C)c2c(c1C)OC(C)(C)C2c1ccc(N(C)C)cc1 (stereo unspecified) | 124 to 125 °C |
| COc1ccc(-c2coc3ccc(-c4nnc(SCc5cccc(C(F)(F)F)c5)o4)cc23)cc1 | 119 to 120 °C |
| Cc1nc2cc(Cl)c(Cl)cc2n1C1CC(CO)C(O)C1O (stereo unspecified) | 198 to 200 °C |
| CCN1CC(OCC=C(C)C)(C(F)(F)F)c2cc(Cl)ccc2NC1=O (stereo unspecified) | 158 to 160 °C |
| CCOC(=O)C(CC(=O)c1ccc(Oc2ccccc2)cc1)SC(=O)c1ccccc1 (stereo unspecified) | 95 to 96 °C |
| CC(O)(CC(=O)O)c1ccc(-c2ccc(Br)cc2Br)cc1 (stereo unspecified) | 118 to 120 °C |
| FC(F)C(F)(F)Sc1nc(-c2ccccc2)c(-c2cccnc2)[nH]1 | 153 to 154 °C |
| Cc1noc(NS(=O)(=O)c2ccccc2-c2ccc(-c3ncccn3)cc2CN2CCC(C)(C)C2=O)c1C | 105 to 115 °C |
| O=C(O)C1=CCc2ccccc21 | 157 °C |
| COC(=O)C1=C(C)NC(C)=C(C(=O)OCCN2CCN(S(=O)(=O)c3ccc(Cl)cc3)CC2)C1c1cccc([N+](=O)[O-])c1 (stereo unspecified) | 97 to 105 °C |
| COc1ccc(-c2cnc(S)nc2-c2ccc(OC)cc2)cc1 | 188 to 191 °C |
| COn1c(C#N)c(C#N)c(Br)c1-c1ccc(Cl)cc1 | 166 to 167 °C |
| CCNc1cccc(C#CCCn2nc3ccccc3n2)n1 | 73 to 78 °C |
| COC=C(C(=O)OC)c1csc2ccc(C=Cc3ccccc3)cc12 | 180 to 181 °C |
| CN(c1cccc2cc(-c3ncc(CCc4nn[nH]n4)s3)[nH]c12)S(=O)(=O)c1cccs1 | 211 to 212 °C |
| O=C(NCCN1CCc2ccc3c(c21)CCO3)C1CC1 | 147 to 149 °C |
